Biological target: LIM domain kinase 1 (Homo sapiens) (UniProt P53667)
Sequence (P53667 whole entry, looked up, the tested form may be a part): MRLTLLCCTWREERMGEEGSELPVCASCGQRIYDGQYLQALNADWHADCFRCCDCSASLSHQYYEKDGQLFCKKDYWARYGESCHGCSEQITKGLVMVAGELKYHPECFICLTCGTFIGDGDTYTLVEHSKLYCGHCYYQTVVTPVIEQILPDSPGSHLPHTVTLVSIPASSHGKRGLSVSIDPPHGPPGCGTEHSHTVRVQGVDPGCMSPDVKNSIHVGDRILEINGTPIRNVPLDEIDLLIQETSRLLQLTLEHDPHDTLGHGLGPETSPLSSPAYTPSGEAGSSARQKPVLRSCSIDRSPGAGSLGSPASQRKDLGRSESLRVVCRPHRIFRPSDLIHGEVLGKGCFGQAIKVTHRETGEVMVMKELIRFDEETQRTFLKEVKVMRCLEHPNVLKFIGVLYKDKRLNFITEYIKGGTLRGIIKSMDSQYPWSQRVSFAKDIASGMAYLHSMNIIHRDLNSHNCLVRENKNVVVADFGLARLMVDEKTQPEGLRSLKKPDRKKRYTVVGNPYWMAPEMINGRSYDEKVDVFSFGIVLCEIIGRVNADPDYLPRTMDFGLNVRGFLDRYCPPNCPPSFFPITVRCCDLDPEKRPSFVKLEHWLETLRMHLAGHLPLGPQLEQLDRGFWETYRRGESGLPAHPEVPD
Settings: at 1 µM
Class TRUE: residual activity at least 90%. Class FALSE: residual activity below 90%.

Quick check, residual activity >= 90%? CC#CC(=O)Nc1cc2c(Nc3ccc(F)c(Cl)c3)ncnc2cn1
TRUE

Try Cn1cc(/C=C2\C(=O)Nc3ccc(S(N)(=O)=O)cc32)c2ccccc21 next.
TRUE

Same question for Cc1cc2ncc(-c3ccccc3)nc2cc1C please.
TRUE

Moving on to CO[C@H]1C[C@@H]2CC[C@@H](C)[C@@](O)(O2)C(=O)C(=O)N2CCCC[C@H]2C(=O)O[C@H]([C@H](C)C[C@@H]2CC[C@@H](O)[C@H](OC)C2)CC(=O)[C@H](C)/C=C(\C)[C@@H](O)[C@@H](OC)C(=O)[C@H](C)C[C@H](C)/C=C/C=C/C=C/1C
TRUE

One more compound: O=Nc1c(-c2c(O)[nH]c3ccccc23)[nH]c2ccccc12
FALSE

Next entry: Cc1cc(Nc2nc(-c3ccccc3)nc3ccccc23)n[nH]1
FALSE

====

I'd be grateful if you could share measured residual activity for these entries.
Target: Ephrin type-A receptor 5 (Homo sapiens) (UniProt P54756)
Sequence (P54756 whole entry): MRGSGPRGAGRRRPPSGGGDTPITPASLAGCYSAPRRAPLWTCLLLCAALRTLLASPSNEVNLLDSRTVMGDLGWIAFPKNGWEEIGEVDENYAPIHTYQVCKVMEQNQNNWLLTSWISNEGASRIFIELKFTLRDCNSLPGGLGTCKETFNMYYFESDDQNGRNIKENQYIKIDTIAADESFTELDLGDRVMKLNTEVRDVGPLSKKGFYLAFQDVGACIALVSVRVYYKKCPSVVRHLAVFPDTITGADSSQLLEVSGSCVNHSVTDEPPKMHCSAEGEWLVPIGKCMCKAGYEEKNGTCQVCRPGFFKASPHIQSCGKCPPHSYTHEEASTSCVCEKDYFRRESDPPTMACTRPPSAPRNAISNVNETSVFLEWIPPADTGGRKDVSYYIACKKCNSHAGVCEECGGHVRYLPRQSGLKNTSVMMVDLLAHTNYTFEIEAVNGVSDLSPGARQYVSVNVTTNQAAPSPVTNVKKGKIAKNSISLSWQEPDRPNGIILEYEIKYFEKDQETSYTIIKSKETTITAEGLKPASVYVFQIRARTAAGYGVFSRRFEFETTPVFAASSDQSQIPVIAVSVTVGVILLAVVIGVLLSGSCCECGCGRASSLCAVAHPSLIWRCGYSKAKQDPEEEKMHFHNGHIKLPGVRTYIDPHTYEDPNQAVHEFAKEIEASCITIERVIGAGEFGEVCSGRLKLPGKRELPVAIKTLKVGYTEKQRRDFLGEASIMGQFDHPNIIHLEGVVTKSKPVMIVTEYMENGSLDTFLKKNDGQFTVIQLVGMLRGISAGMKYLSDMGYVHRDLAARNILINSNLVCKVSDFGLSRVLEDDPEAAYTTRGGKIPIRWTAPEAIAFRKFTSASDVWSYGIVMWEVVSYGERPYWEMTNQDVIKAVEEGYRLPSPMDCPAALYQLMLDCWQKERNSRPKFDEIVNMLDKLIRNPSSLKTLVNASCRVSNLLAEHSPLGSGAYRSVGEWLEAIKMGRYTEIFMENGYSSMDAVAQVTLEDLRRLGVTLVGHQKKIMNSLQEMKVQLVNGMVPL
Settings: at 10 µM
# output: bare number, implied unit %

# get_value(readout='residual activity', item= Nc1ccc2ncnc(NCCc3ccc(Oc4ccccc4)cc3)c2c1 )
113

What do you get for CNc1cc2c(Nc3cccc(Br)c3)ncnc2cn1 ?
92

Consider next the molecule c1ccc2c(-c3ccncc3)c[nH]c2c1 in the same way.
111

Moving on to the next molecule: Oc1n[nH]c2nnc(-c3c(-c4ccccc4)nn4ccccc34)cc12
95

Note, next up: O=C1NC(=O)/C(=C/c2ccc3c(c2)OC(F)(F)O3)S1
103

Here is the next molecule: COc1ccc(S(=O)(=O)N(CCO)c2ccccc2CN(C)C/C=C/c2ccc(Cl)cc2)cc1
112

# repeat for CCOc1cc2ncnc(Nc3cccc(Br)c3)c2cc1OCC
9

Request: Cc1ccc(NC2=CC(=O)c3sc(C)nc3C2=O)cc1
100

What about CC(=O)O/N=C1\C(=C2\C(=O)Nc3cc(Br)ccc32)Nc2ccccc21 ?
47

Another: O=C1NC(=O)c2c1c1c3ccccc3[nH]c1c1[nH]c3cc(Br)ccc3c21
91

Another: O=C1Nc2cc(Br)ccc2/C1=C1/Nc2ccccc2/C1=N\O
42

====

Biological target: AMP-activated protein kinase (AMPK) alpha-1/beta-1/gamma-1 (Homo sapiens) (UniProt P54619+Q9Y478+Q13131)
Sequence (P54619 whole entry): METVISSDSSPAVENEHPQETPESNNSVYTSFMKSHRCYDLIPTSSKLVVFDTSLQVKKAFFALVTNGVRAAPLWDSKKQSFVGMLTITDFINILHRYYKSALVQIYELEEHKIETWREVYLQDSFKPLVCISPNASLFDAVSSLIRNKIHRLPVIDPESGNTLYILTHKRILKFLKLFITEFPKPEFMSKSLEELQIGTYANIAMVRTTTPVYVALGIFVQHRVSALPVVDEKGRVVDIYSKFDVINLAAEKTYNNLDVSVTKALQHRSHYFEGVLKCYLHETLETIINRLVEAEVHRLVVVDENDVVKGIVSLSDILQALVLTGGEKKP
Sequence (Q13131 whole entry partner): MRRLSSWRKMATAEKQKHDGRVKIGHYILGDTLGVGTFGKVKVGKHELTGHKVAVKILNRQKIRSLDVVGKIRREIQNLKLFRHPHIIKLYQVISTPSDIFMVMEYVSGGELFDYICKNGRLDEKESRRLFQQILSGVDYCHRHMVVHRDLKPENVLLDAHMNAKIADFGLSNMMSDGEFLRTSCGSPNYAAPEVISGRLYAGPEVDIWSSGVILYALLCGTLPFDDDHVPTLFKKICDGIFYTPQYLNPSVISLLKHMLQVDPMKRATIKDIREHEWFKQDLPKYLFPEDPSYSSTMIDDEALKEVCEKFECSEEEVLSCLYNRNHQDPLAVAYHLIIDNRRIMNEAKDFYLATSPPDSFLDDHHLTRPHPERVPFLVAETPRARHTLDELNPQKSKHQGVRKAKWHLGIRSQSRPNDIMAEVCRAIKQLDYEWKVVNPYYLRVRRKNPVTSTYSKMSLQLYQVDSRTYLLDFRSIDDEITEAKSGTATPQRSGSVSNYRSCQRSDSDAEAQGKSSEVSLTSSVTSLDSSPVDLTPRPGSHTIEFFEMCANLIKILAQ
Sequence (Q9Y478 2-270 partner limits assumed): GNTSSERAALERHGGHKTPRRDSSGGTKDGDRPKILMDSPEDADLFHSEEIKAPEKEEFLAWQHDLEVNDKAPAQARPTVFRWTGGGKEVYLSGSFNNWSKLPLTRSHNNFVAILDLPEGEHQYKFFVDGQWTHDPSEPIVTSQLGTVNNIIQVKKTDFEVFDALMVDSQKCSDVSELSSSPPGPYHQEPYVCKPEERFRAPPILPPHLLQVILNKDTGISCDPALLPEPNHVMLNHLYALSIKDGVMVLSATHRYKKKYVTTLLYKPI
Conditions: at 1 µM
Reported endpoint: residual activity

What residual activity value was documented for this molecule, Cn1nc2c3c(cccc31)C(=O)c1ccccc1-2 ?
91%

Follow-up entry: c1ccc(-c2n[nH]c3c2oc2ccccc23)cc1
89%

Check O=C1NC(=O)c2cc(Nc3ccc(F)cc3)c(Nc3ccc(F)cc3)cc21 too.
93%

Also check NC(=O)c1ccc2[nH]c(-c3ccc(Oc4ccc(Cl)cc4)cc3)nc2c1
72%

Next: N#CC(C#N)=C(N)/C(C#N)=C/c1ccc(O)cc1
92%

Try this molecule next: O=[N+]([O-])c1ccc(-c2nc(-c3ccc(F)cc3)c(-c3ccncc3)[nH]2)cc1
97%

And the next one, O=c1c2ccccc2[nH]c(=S)n1CCN1CCC(=C(c2ccc(F)cc2)c2ccc(F)cc2)CC1 ?
101%

// next record O=C1NC(=O)/C(=C\c2ccc3nccnc3c2)S1
94%

Repeat for the following molecule: Oc1ccc(-c2nc(-c3ccc(F)cc3)c(-c3ccncc3)[nH]2)cc1
102%

Ok, now N#Cc1cnc2cnc(NCc3cccnc3)cc2c1Nc1ccc(F)c(Cl)c1
-2%

Repeat with Nc1nc(Nc2ccc(S(N)(=O)=O)cc2)nn1C(=S)Nc1c(F)cccc1F
-2%
